- subject.of.test: murine mastocytoma P815 cells overexpressing hTDO2 (Homo sapiens)
- Sequence (P48775 whole entry): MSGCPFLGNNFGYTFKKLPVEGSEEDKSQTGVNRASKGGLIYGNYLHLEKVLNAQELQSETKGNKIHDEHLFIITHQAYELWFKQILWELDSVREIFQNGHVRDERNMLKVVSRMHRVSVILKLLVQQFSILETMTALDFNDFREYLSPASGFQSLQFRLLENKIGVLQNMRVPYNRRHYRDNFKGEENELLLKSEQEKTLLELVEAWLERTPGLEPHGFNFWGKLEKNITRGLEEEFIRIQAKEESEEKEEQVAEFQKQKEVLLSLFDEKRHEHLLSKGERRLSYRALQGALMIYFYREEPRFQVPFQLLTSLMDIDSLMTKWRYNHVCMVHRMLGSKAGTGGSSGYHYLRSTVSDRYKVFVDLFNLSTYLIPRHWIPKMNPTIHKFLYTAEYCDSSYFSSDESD
- method: Cellular assay for TDO2 activity, hTDO2-overexpressing P815 cells
- condition.info: P815 cells overexpressing hTDO2, overnight incubation, kynurenine in supernatant
pIC50: −log10 of the molar value.
# pIC50 listing for each entry below
readout: pIC50

smiles_notation=Fc1ccc2c(-c3ccc4ncoc4c3)c[nH]c2c1 subject_of_test="murine mastocytoma P815 cells overexpressing hTDO2 (Homo sapiens)" recorded_result=7.10
smiles_notation=CN1CCN(Cc2nc3cc(-c4c[nH]c5cc(F)ccc45)ccc3o2)CC1 subject_of_test="murine mastocytoma P815 cells overexpressing hTDO2 (Homo sapiens)" recorded_result=6.68
smiles_notation=CN1CCN(Cc2nc3ccc(-c4c[nH]c5cc(F)ccc45)cc3[nH]2)CC1 subject_of_test="murine mastocytoma P815 cells overexpressing hTDO2 (Homo sapiens)" recorded_result=6.20
smiles_notation=Fc1ccc2c(-c3ccc4nc(C5CCNCC5)[nH]c4c3)c[nH]c2c1 subject_of_test="murine mastocytoma P815 cells overexpressing hTDO2 (Homo sapiens)" recorded_result=5.54
smiles_notation=NCCc1nc2ccc(-c3c[nH]c4cc(F)ccc34)cc2[nH]1 subject_of_test="murine mastocytoma P815 cells overexpressing hTDO2 (Homo sapiens)" recorded_result=6.16
smiles_notation=CNCc1nc2cc(-c3c[nH]c4cc(F)ccc34)ccc2[nH]1 subject_of_test="murine mastocytoma P815 cells overexpressing hTDO2 (Homo sapiens)" recorded_result=6.46
smiles_notation=CN(C)Cc1nc2ccc(-c3c[nH]c4cc(F)ccc34)cc2[nH]1 subject_of_test="murine mastocytoma P815 cells overexpressing hTDO2 (Homo sapiens)" recorded_result=5.84
smiles_notation=CS(=O)(=O)NCc1nc2cc(-c3c[nH]c4cc(F)ccc34)ccc2o1 subject_of_test="murine mastocytoma P815 cells overexpressing hTDO2 (Homo sapiens)" recorded_result=6.60
smiles_notation=CC(=O)NCc1nc2ccc(-c3c[nH]c4cc(F)ccc34)cc2[nH]1 subject_of_test="murine mastocytoma P815 cells overexpressing hTDO2 (Homo sapiens)" recorded_result=6.05
